Just for reference, patent US9884043B2 is where these values come from.

Biological target: 6His(GST)RORgamma-LBD (Homo sapiens)
Construct: the applied RORgamma-LBD contains a 6-His and GST tag; GST (N)
Experiment: TR-FRET assay (Protocol A), RORgamma-LBD / SRC1_2 co-activator peptide interaction
Conditions: SRC1_2 peptide 0.1 μM, RORgamma-LBD 10 nM, overnight incubation at 4° C.
measured_endpoint: log10 of EC50 (log10 of the value in µM)
Friendly reminder: values = log10 of EC50, unit µM.

O=S(=O)(c1ccccc1C(F)(F)F)n1nc(-c2ccc(C(O)(C(F)(F)F)C(F)(F)F)cc2)c2ccccc21 [Example 9] : 0.97

Looking up Cc1cc(C)cc(S(=O)(=O)n2nc(-c3ccc(C(=O)O)c(C(F)(F)F)c3)c3ccccc32)c1 [Example 18] , I see its log10 of EC50 listed as 0.52

Looking up N#Cc1ccccc1S(=O)(=O)n1nc(-c2ccc(C(=O)O)cc2)c2ccccc21 [Example 14] , I see its log10 of EC50 listed as 0.29

Looking up O=C(O)c1ccc(-c2nn(S(=O)(=O)c3cccc4ccccc34)c3ccccc23)cc1 [Example 15B] , I see its log10 of EC50 listed as -0.74

Looking up O=C(O)c1ccc(-c2nn(C(=O)c3ccccc3C(F)(F)F)c3cccnc23)cc1 [Example 6B] , I see its log10 of EC50 listed as -0.65

Looking up O=C(O)c1ccc(-c2nn(S(=O)(=O)c3cccc4cccnc34)c3ccccc23)cc1 [Example 13A] , I see its log10 of EC50 listed as -0.81

====

Target: HIS-tagged RORγ-LBD (Homo sapiens, UniProt P51449)
Construct: HIS-tagged RORγ-LBD was recombinantly expressed in SF9 cells using a baculovirus expression system; made in house; host or cells: SF9 cells, baculovirus; crude lysate used
Sequence (P51449 269-508 limits assumed): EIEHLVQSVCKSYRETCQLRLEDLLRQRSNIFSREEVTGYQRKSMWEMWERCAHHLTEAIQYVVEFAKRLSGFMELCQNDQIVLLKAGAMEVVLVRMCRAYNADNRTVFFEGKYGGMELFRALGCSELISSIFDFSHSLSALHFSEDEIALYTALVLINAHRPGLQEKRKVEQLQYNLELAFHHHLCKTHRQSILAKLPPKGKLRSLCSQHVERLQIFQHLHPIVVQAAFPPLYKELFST
Experiment: TR-FRET assay (Protocol B), RORγ-LBD lysate / biotinylated SRC1-2 LXXLL peptide
Assay type: biochemical
Conditions: unpurified RORγ-LBD lysate ~10 nM, SRC1-2 peptide 450 nM
pIC50: −log10 of the molar value.
measured_endpoint: pIC50

Below are worked cases with known answers.
NC(=O)c1ccc(-c2nn(C(=O)c3c(Cl)cccc3C(F)(F)F)c3cccc(F)c23)cc1 [Example 24J] : 6.30 to 7.30
COc1cc(F)c2c(-c3ccc(C(=O)O)cc3)nn(C(=O)c3c(Cl)cccc3C(F)(F)F)c2c1 [Example 24AZ] : 6.30 to 7.30

Record O=C(O)Cc1ccc(-c2nn(C(=O)c3c(Cl)cccc3C(F)(F)F)c3cccc(F)c23)cc1 [Example 24G] has HIS-tagged RORγ-LBD (Homo sapiens, UniProt P51449) pIC50 equal to 5.00 to 6.30

Record CN(CCO)C(=O)c1ccc2c(-c3ccc(C(=O)O)cc3)nn(C(=O)c3c(Cl)cccc3C(F)(F)F)c2c1 [Example 25Q] has HIS-tagged RORγ-LBD (Homo sapiens, UniProt P51449) pIC50 equal to > 7.30

Record O=C(O)c1ccc(-c2nn(C(=O)c3c(Cl)cccc3C(F)(F)F)c3cc(C(=O)NCCCCO)ccc23)cc1 [Example 25P] has HIS-tagged RORγ-LBD (Homo sapiens, UniProt P51449) pIC50 equal to > 7.30

Record COc1cccc(F)c1C(=O)n1nc(-c2ccc(C(=O)O)cc2F)c2c(F)cccc21 [Example 24AA] has HIS-tagged RORγ-LBD (Homo sapiens, UniProt P51449) pIC50 equal to > 7.30

Record O=C(O)c1ccc(-c2nn(C(=O)c3c(Cl)cccc3C(F)(F)F)c3cccc(F)c23)c(F)c1F [Example 24V] has HIS-tagged RORγ-LBD (Homo sapiens, UniProt P51449) pIC50 equal to > 7.30
